# experimentalSystem: human serum albumin (human) (UniProt P02768)
# Sequence (P02768 25-609 limits assumed): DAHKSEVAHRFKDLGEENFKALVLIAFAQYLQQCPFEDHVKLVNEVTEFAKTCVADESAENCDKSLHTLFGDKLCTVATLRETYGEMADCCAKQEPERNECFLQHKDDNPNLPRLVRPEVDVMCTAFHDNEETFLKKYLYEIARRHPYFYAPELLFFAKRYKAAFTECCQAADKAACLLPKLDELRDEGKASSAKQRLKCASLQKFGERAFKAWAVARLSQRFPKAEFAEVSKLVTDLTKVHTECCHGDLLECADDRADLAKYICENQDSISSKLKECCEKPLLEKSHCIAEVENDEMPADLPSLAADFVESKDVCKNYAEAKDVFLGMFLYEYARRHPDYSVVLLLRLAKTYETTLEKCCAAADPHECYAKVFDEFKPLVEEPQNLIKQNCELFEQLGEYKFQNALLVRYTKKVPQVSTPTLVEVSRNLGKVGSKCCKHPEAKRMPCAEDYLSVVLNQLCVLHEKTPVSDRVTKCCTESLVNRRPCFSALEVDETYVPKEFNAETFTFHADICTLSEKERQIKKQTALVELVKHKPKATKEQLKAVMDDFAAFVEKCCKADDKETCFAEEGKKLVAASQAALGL
# testSummary: screening ELISA
Below, each entry is listed alongside its reported HSA.
The answer should be written as a number, with no unit following it.

Some solved cases for reference:
SEQ ID NO 190 (designed binder) MLPAPKNLVVSRVTEDSARLSWTAPDAAFDSFFIGYPEYPATGEAITLFVPGSERSYDLTGLKPGTEYNVVIQGVKGGRPSNPLVVAFTT = 4900
SEQ ID NO 210 (designed binder) MLPAPKNLVVSRVTEDSARLSWTAPDAAFDSFSIVYGERFVNGEAIVLTVPGSERSYDLTGLKPGTEYHVYIDGVKGGDLSWPLSAIFTT = 2250
SEQ ID NO 225 (designed binder) MLPAPKNLVVSRVTEDSARLSWTAPDAAFDSFKIEYFEYVGYGEAIVLTVPGSERSYDLTGLKPGTEYYVAIYGVKGGWYSRPLSAIFTT = 14100
SEQ ID NO 245 (designed binder) MLPAPKNLVVSRITEDSARLSWTAPDAAFDSFGIAYNEGDHYGEAIVLTVPGSERSYDLTGLKPGTEYSVWIEGVKGGNLSYPLSAIFTT = 2900
SEQ ID NO 84 (designed binder) MLPAPKNLVVSRVTEDSARLSWTAPDAAFDSFPIYYWEVFPAGEAIELDVPGSERSYDLTGLKPGTEYFVRIEGVKGGASSYPLRAEFTT = 3850

HSA lookup needed for SEQ ID NO 53 (designed binder) MLPAPKNLVVSRVTEDSARLSWTAPDAAFDSFFISYIEWWDLGEAIVLTVPGSERSYDLTGLKPGTEYHVEIFGVKGGTQSYPLSAIFTT , thanks.
9120

Repeat with SEQ ID NO 205 (designed binder) MLPAPKNLVVSRVTEDSARLSWTAPDAAFDSFDIDYDEPAWNGEAIVLTVPGSERSYDLTGLKPGTEYRVFIYGVKGGNTSWPLSAIFTT
3350

Repeat with SEQ ID NO 101 (designed binder) MLPAPKNLVVSRVTEDSARLSWTAPDAAFDSFAIDYDEPINSGEAIVLTVPGSERSYDLTGPKPGTEYEVEIYGVKGGYLSRPLSAIFTT
9100
